In this section we review reported activity at 10 µM values for a set of compounds.
- Target desc: CaSR (Rattus norvegicus, UniProt P48442)
- Construct: expressed in transfected cells; host or cells: CHO (Chinese hamster ovary) cells, CHO(CaSR)
- Sequence (P48442 20-1079): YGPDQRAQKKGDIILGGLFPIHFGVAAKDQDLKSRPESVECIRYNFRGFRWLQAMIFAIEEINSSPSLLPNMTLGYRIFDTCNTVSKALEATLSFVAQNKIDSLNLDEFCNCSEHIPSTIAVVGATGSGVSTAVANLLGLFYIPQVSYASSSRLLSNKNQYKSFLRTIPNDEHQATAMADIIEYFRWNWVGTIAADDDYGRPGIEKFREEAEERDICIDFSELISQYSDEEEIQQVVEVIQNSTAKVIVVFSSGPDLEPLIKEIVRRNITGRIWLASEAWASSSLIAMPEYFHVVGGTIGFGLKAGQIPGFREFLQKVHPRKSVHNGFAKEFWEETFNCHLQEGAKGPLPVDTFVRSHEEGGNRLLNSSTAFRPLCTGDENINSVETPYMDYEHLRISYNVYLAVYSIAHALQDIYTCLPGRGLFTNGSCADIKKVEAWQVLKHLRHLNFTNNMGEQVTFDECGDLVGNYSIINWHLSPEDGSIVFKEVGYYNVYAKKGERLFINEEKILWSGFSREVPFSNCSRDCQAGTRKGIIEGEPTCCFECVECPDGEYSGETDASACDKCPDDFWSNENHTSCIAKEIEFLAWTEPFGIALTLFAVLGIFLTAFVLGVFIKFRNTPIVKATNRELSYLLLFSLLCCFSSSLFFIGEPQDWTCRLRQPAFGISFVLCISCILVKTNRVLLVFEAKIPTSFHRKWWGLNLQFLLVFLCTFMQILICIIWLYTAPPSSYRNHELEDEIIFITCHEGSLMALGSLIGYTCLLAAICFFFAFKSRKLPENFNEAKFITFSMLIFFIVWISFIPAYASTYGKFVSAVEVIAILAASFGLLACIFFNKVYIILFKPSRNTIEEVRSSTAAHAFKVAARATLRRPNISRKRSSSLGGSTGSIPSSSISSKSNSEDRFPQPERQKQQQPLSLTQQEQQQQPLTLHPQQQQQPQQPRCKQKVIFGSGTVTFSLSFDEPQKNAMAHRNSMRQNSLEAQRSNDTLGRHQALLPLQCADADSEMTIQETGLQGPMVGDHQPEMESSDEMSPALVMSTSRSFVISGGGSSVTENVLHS
- Assay info: Accumulation of tritiated inositol phosphates in CHO(CaSR) cells
- Type: cell-based
- Conditions used: compound 10 μM; basal level at 2 mM Ca2+ = 100%; read-out: Accumulation of (1H)-IP % of basal level, CHO (CaSR)

Solved cases (3 shown):
                                   compound                               target_desc  measured_endpoint  result
0  CC(NCc1cc2cc(Cl)ccc2[nH]1)c1cccc2ccccc12.Cl.Cl (stereo not shown)  CaSR (Rattus norvegicus, UniProt P48442)  activity at 10 µM    325%
1    COc1cccc([C@@H](C)NCCCc2ccccc2Cl)c1.Cl  CaSR (Rattus norvegicus, UniProt P48442)  activity at 10 µM    454%
2  CC(NCC1Cc2ccccc2N1)c1cccc2ccccc12 (stereo not shown)  CaSR (Rattus norvegicus, UniProt P48442)  activity at 10 µM    388%

Problem: Identify activity at 10 µM associated with the compound CC(NCc1cc2ccccc2n1C)c1cccc2ccccc12 (stereo not shown)
Result: 401%
